- System: MDA-MB231
- METHOD_SUMMARY: DNS cytotoxicity assay, MDA-MB-231
- Type: cell-based
- EXPERIMENTAL_CONDITIONS: Homo sapiens, 72 hr incubations, read-out: Cell Line CC50 MDA-MD-231*
Decide using CC50 alone. Strictly below 3000 nM: met. Equal to or above 3000 nM: not met.

| STRUCTURE_SMILES | QUALITATIVE_LABEL |
| --- | --- |
| O=C(N/N=C/c1ccc(Br)cc1)c1n[nH]c2c1CCC2 | met |
| O=C(N/N=C/c1cc(Br)cc(Br)c1O)c1n[nH]c2c1CCC2 | met |
| O=C(N/N=C/c1ccccc1Br)c1n[nH]c2c1CCC2 | not met |
| O=C(N/N=C/c1c(O)ccc2ccccc12)c1n[nH]c2c1CCCC2 | met |
| O=C(N/N=C/c1cccc2ccccc12)c1n[nH]c2c1CCC2 | met |

----------
- Tested on: CEM cell line
- METHOD_SUMMARY: DNS cytotoxicity assay, CEM
- Format: cell-based, human
- EXPERIMENTAL_CONDITIONS: Homo sapiens, CCRF-CEM, Initial Screen; DNS assay; read-out: CEM CC50
REPORTED_PROPERTY: CC50 (µM)

| STRUCTURE_SMILES | QUALIFIER | READOUT_VALUE |
| --- | --- | --- |
| O=C(N/N=C/c1cn(-c2ccccc2)nc1-c1cc2ccccc2oc1=O)c1n[nH]c2c1CCC2 | = | 8.25 |
| O=C(N/N=C/c1ccc(OCc2cn(Cc3ccc([N+](=O)[O-])cc3)nn2)cc1)c1n[nH]c2c1CCC2 | > | 10 |
| Cc1ccc(-c2nn(-c3ccccc3)cc2/C=N/NC(=O)c2n[nH]c3c2CCC3)cc1 | = | 3.6 |
| O=C1Nc2ccccc2/C1=N/NC(=O)c1n[nH]c2c1CCC2 | = | 12.1 |
| O=C(N/N=C/c1ccc(OCc2cn(Cc3ccccc3)nn2)cc1)c1n[nH]c2c1CCC2 | > | 10 |
| O=C(N/N=C/c1cn(-c2ccccc2)nc1-c1ccc(Cl)cc1)c1n[nH]c2c1CCC2 | = | 7.83 |
| O=C1Nc2ccc(F)cc2/C1=N/NC(=O)c1n[nH]c2c1CCC2 | > | 10 |
| COc1ccc(-c2nn(-c3ccccc3)cc2/C=N/NC(=O)c2n[nH]c3c2CCC3)cc1 | = | 3.14 |
| Cc1ccc(Cn2cc(COc3ccc(/C=N/NC(=O)c4n[nH]c5c4CCC5)cc3)nn2)cc1 | > | 10 |
| O=C(N/N=C/c1cn(-c2ccccc2)nc1-c1ccccc1)c1n[nH]c2c1CCC2 | = | 8.15 |

----------
- METHOD_SUMMARY: DNS cytotoxicity assay, HS-27 non-cancerous fibroblast
- Format: cell-based
- EXPERIMENTAL_CONDITIONS: human, Hs-27 non-cancerous foreskin fibroblast cells; Table 4; Normal Fibroblast; 72 hrs; read-out: CC50 HS27
REPORTED_PROPERTY: CC50 at 72 h

| MOLECULE | READOUT_VALUE |
| --- | --- |
| Cc1ccc2c(c1)/C(=N/NC(=O)c1n[nH]c3c1CCC3)C(=O)N2 [SSK-3] | 15.4 µM |
